molecular target: Serine/threonine-protein kinase pim-3 (Homo sapiens) (UniProt Q86V86); conditions: at 10 µM
measured.endpoint: residual activity (%)
Just the number please, in %, no unit attached.

>>> measured_result("O=C1Nc2ccc(Br)cc2/C1=C\\c1cc2c([nH]1)CCCC2")
112

In: If you can, please state the reported residual activity value of `Cn1nc2c3c(cccc31)C(=O)c1ccccc1-2` .
Out: 66

In: Thanks! And `CCN(CC)CCCCN1c2ccccc2Oc2ccc(Cl)cc21` ?
Out: 47

In: Same question, `CCC(=O)Nc1ccc2ncnc(Nc3cccc(Br)c3)c2c1` this time
Out: 85

In: Similarly, `O=C1Nc2cc(Br)ccc2/C1=C1/Nc2ccccc2/C1=N\O` ?
Out: 81

In: Also, O=C1Nc2ccccc2/C1=C1/Nc2ccccc2/C1=N\OCCC(O)CO (stereo unspecified) please.
Out: 64

The measurements presented in this section are drawn from ChEMBL document CHEMBL2218924.
